Each recorded value in this set is attributed to PubChem BioAssay AID2253.

# Tested on: THP-1 viability, CellTiter-Glo luminescence, 72 h
# EXPERIMENTAL PROTOCOL: THP-1 cell cytotoxicity, dose response, cytotoxicity control for Salmonella PhoP regulon inhibitors, S. typhimurium screen hits (AID 2253)
REPORTED ENDPOINT: EC50

Here's what some known entries look like.
molecule=CCCCCCCCCCOC(=O)Cn1c(COc2cccc(C)c2)[n+](C)c2ccccc21 reported_endpoint=EC50 assay_result="4.4 µM"
molecule=Cc1ccc(NC(=O)NCC2CCN(Cc3cccc(Cl)c3)CC2)cc1Cl reported_endpoint=EC50 assay_result="13.9 µM"
molecule=Cc1cccc(Nc2cc(C)c3c(O)cccc3n2)c1C reported_endpoint=EC50 assay_result="8.98 µM"
molecule=Cc1ccc(/C=C2\SC(=S)N(Cc3ccccc3)C2=O)o1 reported_endpoint=EC50 assay_result="24.4 µM"
molecule=CN1/C(=C\C=N\NC(=O)c2ccccc2Br)C(C)(C)c2ccccc21 reported_endpoint=EC50 assay_result="32.2 µM"

Bench note: what EC50 did O=Cc1ccc(O)c2ncccc12 show?
3.79 µM

Would you kindly repeat that for CCCCCNCC(=O)Nc1cccc(C(=O)Nc2cccc(C(F)(F)F)c2)c1 ?
12.4 µM

Now the same for CC1(C)CC(=O)C2=C(C1)OC1=C(C(=O)CC(C)(C)C1)C2c1ccc(O)cc1O
5.36 µM

Here is the next molecule: S=C(NCc1cccnc1)Nc1ccc(Cl)c(Cl)c1
40 µM

Could you do the same for O=C(c1ccc(CSc2nc3ccncc3[nH]2)cc1)N1CCN(c2cccc(Cl)c2)CC1 , please?
15.3 µM
